# Species: Rattus norvegicus
# Method: Open TG-GATES - Regimen: Single
# Type: toxicity, organism-based, Sprague-Dawley
# Parameters: regimen Single, gender Male, age 6 weeks
# Condition label: in vivo, po, 100 mg/kg, 24 h, tissue Blood, route gavage, dose level Low
Readout type: Ret (%)
# number only, unit % dropped from output

Recorded results for 3 compounds are shown here.
Prompt: Data request, read-out Ret, for CCOC(=O)CCC(=O)O[C@H]1[C@H](O[C@@H]2[C@@H](C)[C@H](O[C@H]3C[C@@](C)(OC)[C@@H](O)[C@H](C)O3)[C@@H](C)C(=O)O[C@H](CC)[C@@](C)(O)[C@H](O)[C@@H](C)C(=O)[C@H](C)C[C@@]2(C)O)O[C@H](C)C[C@@H]1N(C)C [ERYTHROMYCIN ETHYLSUCCINATE]
Completion: 6.7

Prompt: Now give it for COc1ccc2[nH]c([S+]([O-])Cc3ncc(C)c(OC)c3C)nc2c1 (centres undefined) too.
Completion: 6.9

Prompt: Now give it for "NC(N)=Nc1nc(CSCCC(N)=NS(N)(=O)=O)cs1" too.
Completion: 6.1

Okay, next one:
Prompt: Data request, read-out Ret, for "COC1=CC(=O)C[C@@H](C)[C@]12Oc1c(Cl)c(OC)cc(OC)c1C2=O"
Completion: 7.2

====

# Species: Rattus norvegicus
# Method: Open TG-GATES - Regimen: Single
# Type: toxicity, organism-based, Sprague-Dawley
# Design: regimen Single, gender Male, age 6 weeks
# Condition label: in vivo, po, 1000 mg/kg, 6 h, tissue Blood, route gavage, dose level High
Readout type: MCV
Report the figure along with its unit, number first.

Prompt: Data request, read-out MCV, for "COC1=CC(=O)C[C@@H](C)[C@]12Oc1c(Cl)c(OC)cc(OC)c1C2=O"
Completion: 64.3 fL

Prompt: Now give it for COc1ccc2[nH]c([S+]([O-])Cc3ncc(C)c(OC)c3C)nc2c1 (centres undefined) too.
Completion: 61.8 fL

Prompt: Now give it for "NC(N)=Nc1nc(CSCCC(N)=NS(N)(=O)=O)cs1" too.
Completion: 61.2 fL

New cases:
Prompt: Data request, read-out MCV, for CCOC(=O)CCC(=O)O[C@H]1[C@H](O[C@@H]2[C@@H](C)[C@H](O[C@H]3C[C@@](C)(OC)[C@@H](O)[C@H](C)O3)[C@@H](C)C(=O)O[C@H](CC)[C@@](C)(O)[C@H](O)[C@@H](C)C(=O)[C@H](C)C[C@@]2(C)O)O[C@H](C)C[C@@H]1N(C)C [ERYTHROMYCIN ETHYLSUCCINATE]
Completion: 62.9 fL

====

# Species: Rattus norvegicus
# Method: Open TG-GATES - Regimen: Daily Repeat
# Type: toxicity, organism-based, Sprague-Dawley
# Parameters: regimen Daily Repeat, gender Male, age 6 weeks
# Condition label: in vivo, po, 300 mg/kg, […], tissue Plasma, route gavage, dose level Middle, time 28 day
Measured RALB, listed per entry.

Recorded results for 4 molecules are shown here.
Prompt: Data request, read-out RALB, for COC1=CC(=O)C[C@@H](C)[C@]12Oc1c(Cl)c(OC)cc(OC)c1C2=O [GRISEOFULVIN]
Completion: 3.4 g/dL

Prompt: Now give it for CCOc1ccc(NC(=O)CC(C)O)cc1 (stereo not given) [BUCETIN] too.
Completion: 2.8 g/dL

Prompt: Now give it for NC(N)=Nc1nc(CSCCC(N)=NS(N)(=O)=O)cs1 [FAMOTIDINE] too.
Completion: 3.3 g/dL

Prompt: Now give it for COc1ccc2[nH]c([S+]([O-])Cc3ncc(C)c(OC)c3C)nc2c1 (stereo not given) [OMEPRAZOLE] too.
Completion: 3.5 g/dL

Okay, next one:
Prompt: Data request, read-out RALB, for CCOC(=O)CCC(=O)O[C@H]1[C@H](O[C@@H]2[C@@H](C)[C@H](O[C@H]3C[C@@](C)(OC)[C@@H](O)[C@H](C)O3)[C@@H](C)C(=O)O[C@H](CC)[C@@](C)(O)[C@H](O)[C@@H](C)C(=O)[C@H](C)C[C@@]2(C)O)O[C@H](C)C[C@@H]1N(C)C [ERYTHROMYCIN ETHYLSUCCINATE]
Completion: 3.1 g/dL
